Value source: PubChem BioAssay (NCI)

System: SNB-19 CNS
ASSAY METHOD TEXT: NCI-60 one-dose screen, 48 h
ASSAY CONTEXT: 10 µM unless noted
About 83,000 compounds went through this panel and 20% of them were active in at least one assay; those are over-represented in the sample as a whole. Active and inactive are the calls of the source. How the source made its calls: active means growth percent below 10; inactive means the rest.
Respond with a class label; see true (1) for active, false (0) for inactive

The examples below pair each entry with its known result.
{"MOLECULE": "COC(=O)[C@]12CC[C@@H](C)[C@H](C)[C@@H]1C1=CC[C@@H]3[C@@]4(C)C[C@@H](OC(C)=O)[C@H](O)[C@@](C)(COC(C)=O)[C@@H]4[C@H](O)C[C@@]3(C)[C@]1(C)CC2", "SYSTEM TESTED": "SNB-19 CNS", "LABEL": "true (1)"}
{"MOLECULE": "C[C@H]1[C@H]2C3=CC[C@@H]4[C@@]5(C)C/C(=C/c6ccco6)C(=O)C(C)(C)[C@@H]5CC[C@@]4(C)[C@]3(C)CC[C@@]2(C(=O)N2CCOCC2)CC[C@@H]1C", "SYSTEM TESTED": "SNB-19 CNS", "LABEL": "false (0)"}
{"MOLECULE": "Nc1ccc(Br)cn1", "SYSTEM TESTED": "SNB-19 CNS", "LABEL": "false (0)"}
{"MOLECULE": "COc1cc(/C=C/c2cc(/C=C/c3ccc(O)c(OC)c3)n(-c3ccc(Cl)cc3)c(=O)n2)ccc1O", "SYSTEM TESTED": "SNB-19 CNS", "LABEL": "false (0)"}
{"MOLECULE": "O=C1c2ccccc2NC(c2cn(-c3ccccc3)nc2-c2cccnc2)N1Cc1ccccc1 (configuration not stated)", "SYSTEM TESTED": "SNB-19 CNS", "LABEL": "false (0)"}
{"MOLECULE": "CCC1C(=O)COC1=O (configuration not stated)", "SYSTEM TESTED": "SNB-19 CNS", "LABEL": "false (0)"}

Exercise: Test call, this molecule: `Cc1csc(Nc2nc(-c3cccc(Br)c3)nc(C(Cl)(Cl)Cl)n2)n1`
Solution: false (0)

Exercise: Assay outcome for `NNC(=O)c1nc2ccccc2[nH]1` : what was it?
Solution: false (0)

Exercise: // param item: c1ccc(CN2C(c3ccccc3)=Nc3ccccc3C2c2c[nH]c3ccccc23)cc1 (configuration not stated) ; yields the recorded call
Solution: false (0)

Exercise: Hello, I am checking results. What call was entered for N#CC1=C(N)Oc2ccc3ccccc3c2C1c1ccccc1 (configuration not stated) ?
Solution: false (0)

Exercise: For this molecule, state the assay outcome: `COc1cccc(-c2nn(-c3ccccc3)cc2-c2ccnc(NCCCNS(=O)(=O)c3ccc(C(F)(F)F)cc3)c2)c1`
Solution: false (0)

Exercise: Which outcome did this test record for the molecule `CC[C@H](CC[C@@H](C)[C@H]1CC[C@H]2[C@@H]3/C(=C/c4cccnc4)C(=O)C4=CC(=O)CC[C@]4(C)[C@H]3CC[C@]12C)C(C)C` ?
Solution: false (0)

Exercise: Which outcome was assigned to `Cc1cc(N(CCCNc2ccnc3cc(Cl)ccc23)Cc2ccco2)nc(N2CCOCC2)n1` in this test?
Solution: false (0)

Exercise: I'd appreciate the recorded outcome for `COc1cccc(-c2nn(-c3ccccc3)cc2-c2ccnc(NCCCNS(=O)(=O)c3cccc(F)c3)c2)c1` from this test.
Solution: false (0)

Exercise: Dear colleague, could you share the recorded outcome for `O=C1CCCC=CC[C@H]2C=C(Cl)C(=O)C2=CC[C@H](CCCCC(F)(F)F)OC(=O)CCCC=CC[C@H]2C=C(Cl)C(=O)C2=CC[C@H](CCCCC(F)(F)F)OC(=O)CCCC=CC[C@H]2C=C(Cl)C(=O)C2=CC[C@H](CCCCC(F)(F)F)O1` when you have a moment?
Solution: false (0)

Exercise: Each molecule tested received a call. Report the one for `Cc1cc(N=O)cc(C(C)(C)C)c1O` .
Solution: false (0)

Exercise: For `CCc1ccc(-c2ccc(Nc3ccccc3)nn2)cc1S(N)(=O)=O` , what call appears in the results of this test?
Solution: false (0)

----------
Test system: MDA-MB-231 breast
ASSAY METHOD TEXT: NCI-60 one-dose screen, 48 h
ASSAY CONTEXT: 10 µM unless noted
About 83,000 compounds went through this panel and 20% of them were active in at least one assay; those are over-represented in the sample as a whole. Calls of active or inactive are those of the source. Rule for the calls: active = growth percent below 10; inactive = the rest.
API: response.call in T for active, F for inactive

{"MOLECULE": "CCCCC/C(=C\\c1ccccc1)C1OC(C)C(C)O1 (stereo not drawn)", "LABEL": "F"}

Exercise: # outcome recorded in this test, key = `COc1ccc(C(=O)c2cc(OC)c(OC)c(OC)c2)cc1/C=C/C(=O)c1cc(OC)c(OC)c(OC)c1`
Solution: F

Exercise: Which result was noted for this molecule in the test: C#CCC(C)(O)/C=C/C1=C(C)CCCC1(C)C (stereo not drawn)
Solution: F

Exercise: Can you look up the reported call for `COc1cc(/C=N/NC(=S)NNC(=S)NC2CCCCC2)cc(OC)c1OC` for me?
Solution: F

Exercise: What did the test return for `Cc1ccc(-c2nc([P+](c3ccccc3)(c3ccccc3)c3ccccc3)c(N3C[C@H]4C[C@H](C3)c3cccc(=O)n3C4)o2)cc1` ?
Solution: F

Exercise: What call does the record list for `CC/C=C\C[C@H]1CC=C2C(=O)C=C[C@@H]2CC=CCCCC(=O)O[C@@H](CCCCC)CC=C2C(=O)C=C[C@@H]2CC=CCCCC(=O)O[C@@H](CCCCC)CC=C2C(=O)C=C[C@@H]2CC=CCCCC(=O)O[C@@H](CCCCC)CC=C2C(=O)C=C[C@@H]2CC=CCCCC(=O)O1` ?
Solution: T

Exercise: Which result was noted for this molecule in the test: `COc1ccc(CCN2C(=O)C(C)(C)SC2=S)cc1OC`
Solution: F

Exercise: Test call, this molecule: CCSc1ncnc2c1ncn2C1OC(CO)C(O)C1O (stereo not drawn)
Solution: F

----------
Test system: MDA-MB-435 melanoma
ASSAY METHOD TEXT: NCI-60 one-dose screen, 48 h
ASSAY CONTEXT: 10 µM unless noted
About 83,000 compounds went through this panel and 20% of them were active in at least one assay; those are over-represented in the sample as a whole. Active and inactive are the calls of the source. The calls were made as follows: active = growth percent below 10; inactive = the rest.
Reply using exactly one outcome from active, inactive

{"MOLECULE": "C#Cc1cccc(NC(=O)C2CCCN(C(=O)CCl)C2)c1 (stereo not drawn)", "LABEL": "inactive"}
{"MOLECULE": "Cc1ccc(S(=O)(=O)Nc2ccc(-c3cc(-c4cccc(F)c4)c(C#N)c(N)n3)cc2)cc1", "LABEL": "inactive"}
{"MOLECULE": "CCCCC[C@H]1C/C=C2/C(=O)C(Cl)=C[C@@H]2C/C=C\\CCCC(=O)O[C@@H](CCCCC)C/C=C2/C(=O)C(Cl)=C[C@@H]2C/C=C\\CCCC(=O)O1", "LABEL": "active"}
{"MOLECULE": "CC1(C)c2ccccc2C(=O)C1(Br)Cc1ccccc1 (stereo not drawn)", "LABEL": "inactive"}
{"MOLECULE": "O=c1c(CNc2ccc(S(=O)(=O)Nc3ncccn3)cc2)coc2ccccc12", "LABEL": "inactive"}

Exercise: Look up the recorded call for COc1cc(NC(C)CN(CC(C)C)C(C)C)c2ncccc2c1 (stereo not drawn) in this test.
Solution: inactive

Exercise: Check the results log: what was the call for `CCCCC[C@H]1CC=C2C(=O)C(Cl)=C[C@@H]2CC=CCCCC(=O)O[C@@H](CCCCC)CC=C2C(=O)C(Cl)=C[C@@H]2CC=CCCCC(=O)O[C@@H](CCCCC)CC=C2C(=O)C(Cl)=C[C@@H]2CC=CCCCC(=O)O1` ?
Solution: inactive

Exercise: Check the results log: what was the call for `COc1cc(-c2cc(-c3nc4ccc(F)cc4[nH]3)[nH]n2)cc(OC)c1OC` ?
Solution: active

Exercise: Look up the recorded call for `C=C(C)[C@@H]1CC[C@]2(c3nnc(-c4ccncc4)o3)CC[C@]3(C)[C@H](CC[C@@H]4[C@@]5(C)CCC(=O)NC(C)(C)[C@@H]5CC[C@]43C)[C@@H]12` in this test.
Solution: inactive

Exercise: Per the assay record, what outcome was assigned to `Cc1ccc(-c2nn(Cc3cn(-c4cc(C)nc5ccccc45)nn3)c3ncnc(N)c23)cc1` ?
Solution: inactive

----------
Test system: SK-MEL-28 melanoma
ASSAY METHOD TEXT: NCI-60 one-dose screen, 48 h (100 = growth as untreated, 0 = no growth, -100 = all killed)
ASSAY CONTEXT: 10 µM unless noted
About 83,000 compounds went through this panel and 20% of them were active in at least one assay; those are over-represented in the sample as a whole.
MEASURE: growth (%)
Hi! Could you send only the number? It should be in %, unit omitted.

Below, 5 compounds whose answers are already recorded.
{"COMPOUND": "CC1(n2nnnc2N2CCCN(c3ncccc3N)CC2)CCC1", "UNIT OF MEASURE": "%", "READOUT VALUE": 100}
{"COMPOUND": "N#CC1=C(N)Oc2ccc3ccccc3c2C1c1ccccc1 (centres undefined)", "UNIT OF MEASURE": "%", "READOUT VALUE": 54.6}
{"COMPOUND": "CC(C)(C)c1cc(-n2c(-c3ccc(Cl)cc3)nc3cc(C(=O)Nc4ccc(Cl)cc4)ccc32)n[nH]1", "UNIT OF MEASURE": "%", "READOUT VALUE": 79.7}
{"COMPOUND": "O=C(NO)c1ccc(Cn2c(=O)n(CCc3ccc(O)cc3)c(=O)c3ccccc32)cc1", "UNIT OF MEASURE": "%", "READOUT VALUE": 17.5}
{"COMPOUND": "N=C(N)c1ccc(S(N)(=O)=O)cc1", "UNIT OF MEASURE": "%", "READOUT VALUE": 104}

Exercise: Specify measured growth for `COc1ccc(/C(=C\c2ccc3c(c2)OCO3)C(=O)Nc2nc3ccccc3s2)cc1OC` .
Solution: 106

Exercise: Indicate the recorded growth value for this compound: O=C1c2ccccc2NC(c2cn(-c3ccccc3)nc2-c2cccnc2)N1Cc1ccccc1 (centres undefined)
Solution: 108

Exercise: Read the entry `C=C1CC[C@@H](C(=O)OC)Cc2nc(C)ccc21` and write its reported growth.
Solution: 107

Exercise: # return recorded growth for input `COC(=O)[C@]12CC[C@@H](C)[C@H](C)[C@@H]1C1=CC[C@@H]3[C@@]4(C)C[C@@H](OC(C)=O)[C@H](O)[C@@](C)(CO)[C@@H]4[C@H](O)C[C@@]3(C)[C@]1(C)CC2`
Solution: -86
